- experimental_target: T1, SARS-CoV-2 Receptor Binding Domain (RBD) protein (SARS-CoV-2, UniProt P0DTC2 319-541)
- T1 construct: also called Sars-Cov-2 (COV2)
- method_summary: SPR (Carterra LSA); scFv captured by anti-V5, RBD as analyte
Classification field: enter 1 for kon values not below 400000 M⁻¹ s⁻¹, -1 for values below it.

- COVID19_P01_H10 (scFv, V domains shown, also called COVID19_PO1_H10) VH: QVQLVQSGAEVKKPGSSVKVSCKASGGTFGNYPITWVRQAPGQGLEWMGIIYPGDSDARYRPSFQGRVTITADESTSTAYMELSSLRSEDTAVYYCARDFSMGGMDVWGQGTLVTVSS VL: SSYVLTQPPSVSVAPGKTARITCGGNNIGSKSVHWYQQKPGQAPVLVIYYDSDRPSGIPERFSGSNSGNTATLTISRVEAGDEADYYCQVWDDSSDYVFGGGTKLTVLA: -1
- COVID19_P01_B06 (scFv, V domains shown) VH: QVQLVQSGAEVKKPGSSVKVSCKASGYTFSAYYMHWVRQAPGQGLEWMGGITPLFGTPSYAQKFQGRVTITADESTSTAYMELSSLRSEDTAVYYCALETVMGGVGVWGQGTLVTVSS VL: SSYVLTQPPSVSVAPGKTARITCGGNNIGSKSVHWYQQKPGQAPVLVIYYDSDRPSGIPERFSGSNSGNTATLTISRVEAVDEADYYCQVWDSSSDYVFGGGTKLTVLA: 1
- COVID19_P01_B08 (scFv, V domains shown) VH: QVQLVQSGAEVKKPGSSVKVSCKASGGTFSNFAITWVRQAPGQGLEWMGVINPGGGSTTYAQTFQGRVTITADESTSTAYMELSSLRSEDTAVYYCARDTVMGGMDVWGQGTLVTVSS VL: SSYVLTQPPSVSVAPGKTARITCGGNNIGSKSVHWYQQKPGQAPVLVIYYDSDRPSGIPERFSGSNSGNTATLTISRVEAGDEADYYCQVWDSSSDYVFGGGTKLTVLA: 1
- COVID19_P01_H06 (scFv, V domains shown) VH: QVQLVQSGAEVKKPGSSVKVSCKASGYTFTSYYMHWVRQAPGQGLEWMGLIDPSGGTTSYAQKFQGRVTITADESTSTAYMELSSLRSEDTAVYYCVWDTVMGGMDVWGQGTLVTVSS VL: SYVLTQPPSVSVAPGKTAARITCGGNNIGSKSVHWYQQKPGQAPVLVIYKDGERPSGIPERFSGSNSRNTATLTISRVEAGDEADYYCQVWDSSSLYVFGGGTKLTVLA: 1
- COVID19_P01_H04 (scFv, V domains shown) VH: QVQLVQSGAEVKKPGSSVKVSCKASGYPFSSYEINWVRQAPGQGLEWMGGITPIFGTANYAQKFQGRVTITADESTSTAYMELSSLRSEDTAVYYCADETVMGGMDVWGQGTLVTVSS VL: SSYVLTQPPSVSVAPGKTARITCGGNNIGSKSVHWYQQKPGQAPVLVIYYDSDRPSGIPERFSGSNSGNTATLTISRVEAGDEADYYCQVWDSSNDYVFGGGTKLTVLA: 1
